Data provenance: patent US20220298237A1

assayed target: T1, oligopeptide ATYPSGHLD (SEQ ID NO: 101)
T1 construct: Synthetic peptide, part of Loop C of AQP3
T1 peptide: ATYPSGHLD
assay protocol: ELISA on coated peptide
value kind: binding signal (plate reader)

binder: SC-B6 (IgG) (antibody, V domains shown, also called anti AQP3 antibody SC-B6) VH: QSVKESGGRLVTPGAPLTLTCTVSGFSLNNYAMTWVRQAPGKGLEWIGIINNDGISSTWYASWVKGRFIISKTSTTVDLKMTSLTTEDTATYFCARGGTSGYDIWGPGTLVTVSL VL: AQGPTQTPSPVSAAVGGTVTINCQSSPSVYKNYLSWYQQKPGQPPKLLIYGASTLASGVPSRFKGSRSGTQFTLTISDVQCDDAATYYCAGGYIGSRDIFSFGGGTEVVVK
binding signal (plate reader): 3.92
--
binder: BC-H9 (IgG) (antibody, V domains shown, also called anti AQP3 antibody BC-H9) VH: QSLEESGGRLVTPGTPLTLTCTVSGFSLYTYAMGWVRQAPGKGLEWIGIINNDGISSTWYASWVKGRFTISKTSTTMDLKMTSLTTEDTATYFCARGGTSGYDIWGPGTLVTVSL VL: AQGLTQTPSPVSAAVGGTVTINCQSGPSVYKNYLSWYQQKAGQPPKLLIYGASTLASGVPSRFKGSGSGTQFTLTISDVQCDDAATYYCAGGYRGSSDIFAFGGGTEVVVK
binding signal (plate reader): 3.9
--
binder: BC-B10 (IgG) (antibody, V domains shown, also called anti AQP3 antibody BC-B10) VH: QSVEESGGRLVTPGAPLTLTCTVSRFSLSSYAMTWVRQAPGKGLEWIGIINNDVISSTWYASWVKGRFTISKTSTTMELKMTSLTTEDTATYFCARGGTSGYDIWGPGTLVTVSS VL: AIKMTQTPSPVSAAVGGTVTINCQSSPSVYKNYLSWYQQKPGQPPKLLIYGASTLASGVPSRFKGSGSGTQFTLTISDVQCDDAATYYCAGGYIGSRDIFSFGGGTEVVVK
binding signal (plate reader): 3.96

Then this binder:
Measured binding signal (plate reader), Antibody C (antibody, mouse IgG2a, kappa, V domains shown, also called anti AQP3 antibody C) VH: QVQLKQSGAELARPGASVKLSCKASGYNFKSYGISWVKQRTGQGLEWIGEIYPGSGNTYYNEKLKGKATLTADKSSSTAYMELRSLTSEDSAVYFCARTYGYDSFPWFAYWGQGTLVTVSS VL: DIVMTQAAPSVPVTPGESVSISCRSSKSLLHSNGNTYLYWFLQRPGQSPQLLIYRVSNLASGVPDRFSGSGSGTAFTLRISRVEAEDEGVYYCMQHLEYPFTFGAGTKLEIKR : 2.52
